Target: Platelet-derived growth factor receptor (Homo sapiens, UniProt P09619+P16234)
Assay: Inhibition of Platelet-derived growth factor receptor at 1 uM
Format: protein-complex assay
The following molecules are shown together with reported inhibition values.
Please provide the amount together with its unit, number first.

Examples with their reported inhibition follow.
{"molecule": "COc1cc2ncc(N(C)c3ccccc3)nc2cc1OC", "result-value": "0%"}
{"molecule": "COc1cccc2ncc(Nc3ccccc3)nc12", "result-value": "11%"}
{"molecule": "COc1cccc2nc(Nc3ccccc3)cnc12", "result-value": "5%"}
{"molecule": "COc1cc2ncc(SC3CCCCC3)nc2cc1OC", "result-value": "0%"}
{"molecule": "COc1cc2ncc(NCC3CCCCC3)nc2cc1OC", "result-value": "12%"}

Data request: Form field - read-out: inhibition; system: Platelet-derived growth factor receptor (Homo sapiens, UniProt P09619+P16234); submitted item: CCC1CCC(Oc2cnc3cc(OC)c(OC)cc3n2)CC1 (configuration not stated)
Data returned: 16%

Data request: Item `COc1cc2ncc(Nc3ccc(Cl)cc3)nc2cc1OC` with Platelet-derived growth factor receptor (Homo sapiens, UniProt P09619+P16234) - inhibition?
Data returned: 8%

* * *

Molecular target: Platelet-derived growth factor receptor (Homo sapiens, UniProt P09619+P16234)
Assay: Inhibition of Platelet-derived growth factor receptor
// assign 1 (yes) if IC50 falls strictly below 60 nM, else 0 (no) (ties count as 0 (no))

Worked cases, answers included:
{"compound": "COc1cc2ncc(NC3CC4CCC3C4)nc2cc1OC (racemic)", "assay-target": "Platelet-derived growth factor receptor (Homo sapiens, UniProt P09619+P16234)", "class-name": "1 (yes)"}
{"compound": "COc1cc2ncc(N[C@@H]3CC4CCC3C4)nc2cc1OC (stereo in doubt; 38)", "assay-target": "Platelet-derived growth factor receptor (Homo sapiens, UniProt P09619+P16234)", "class-name": "1 (yes)"}
{"compound": "COc1cc2ncc(N[C@@H]3CC4CCC3C4)nc2cc1OC (mixture of isomers)", "assay-target": "Platelet-derived growth factor receptor (Homo sapiens, UniProt P09619+P16234)", "class-name": "0 (no)"}
{"compound": "COc1ccc2ncc(Nc3ccccc3)nc2c1", "assay-target": "Platelet-derived growth factor receptor (Homo sapiens, UniProt P09619+P16234)", "class-name": "1 (yes)"}
{"compound": "COc1cc2ncc(O[C@H]3CC4CCC3C4)nc2cc1OC (mixture of isomers)", "assay-target": "Platelet-derived growth factor receptor (Homo sapiens, UniProt P09619+P16234)", "class-name": "1 (yes)"}
{"compound": "c1ccc(Nc2cnc3ccccc3n2)cc1", "assay-target": "Platelet-derived growth factor receptor (Homo sapiens, UniProt P09619+P16234)", "class-name": "0 (no)"}
{"compound": "COc1cc2cc(NC3CCCCC3)cnc2cc1OC", "assay-target": "Platelet-derived growth factor receptor (Homo sapiens, UniProt P09619+P16234)", "class-name": "0 (no)"}
{"compound": "COc1cc2ncc(SC3CCCC3)nc2cc1OC", "assay-target": "Platelet-derived growth factor receptor (Homo sapiens, UniProt P09619+P16234)", "class-name": "0 (no)"}
{"compound": "COc1cc2ncc(NC3CCCCC3)nc2cc1OC", "assay-target": "Platelet-derived growth factor receptor (Homo sapiens, UniProt P09619+P16234)", "class-name": "0 (no)"}
{"compound": "COc1cc2ncc(Nc3ccccc3)nc2cc1OC", "assay-target": "Platelet-derived growth factor receptor (Homo sapiens, UniProt P09619+P16234)", "class-name": "1 (yes)"}

Data request: Could you please tell me whether IC50 recorded for `Cc1cc2ncc(Nc3ccccc3)nc2cc1C` is less than 60 nM?
Data returned: 0 (no)

Data request: Is 60 nM strictly greater than the compound's reported IC50? compound: `COc1cc2ncc(OC3CCCC3)nc2cc1OC`
Data returned: 0 (no)

Data request: Lab log: compare recorded IC50 with 60 nM; is it strictly lower for `COc1cc2cc(OC3CCCCC3)cnc2cc1OC` ?
Data returned: 0 (no)

Data request: Take the compound `COc1cc2ncc(NCc3ccccc3)nc2cc1OC` and say whether its IC50 is less than 60 nM.
Data returned: 0 (no)

Data request: I'd appreciate it if you could check whether COc1cc2ncc(NC3CCCC(C)C3)nc2cc1OC (configuration not stated) has IC50 smaller than 60 nM.
Data returned: 1 (yes)

* * *

Each item that follows carries a reported IC50.
Molecular target: Platelet-derived growth factor receptor (Homo sapiens, UniProt P09619+P16234)
Assay: Inhibition of Platelet-derived growth factor receptor
Supply the numeric figure in nM, leaving out any unit text.

{"compound": "COc1cc2ncc(NC3CCCC3)nc2cc1OC", "IC50 (nM)": 128}

Data request: Endpoint output: IC50 of `COc1cc2ncc(OC3CCCCC3)nc2cc1OC` . Value?
Data returned: 65

Data request: # query: IC50 of entry `COc1ccc2nc(Nc3ccccc3)cnc2c1`
Data returned: 1600

Data request: Fill blank: measured IC50 of the compound COc1cc2ncc(N[C@H]3CC4CCC3C4)nc2cc1OC (some centres not stated) is ____.
Data returned: 742

Data request: Value lookup for IC50; key = COc1cc2ncc(O[C@@H]3CC4CCC3C4)nc2cc1OC (mixture of isomers)
Data returned: 265

Data request: Reported IC50, compound `COc1cc2cc(-c3ccsc3)cnc2cc1OC` : ____
Data returned: 461

Data request: # get_value(readout='IC50', item= `COc1cc2ncc(Nc3cccc(Cl)c3)nc2cc1OC` )
Data returned: 4
